# Test system: HSkMC
# Test Summary: cytotoxicity call (relative viability < 0.9)
# Condition Set: 10 µM
The whole screen tested about 39,000 compounds, of which about 1,500 (3.8%) were called active. The list comes from a sample in which actives are over-represented; it also holds close analogues and randomly drawn compounds.
Outcomes: True (active), False (inactive)

Compound	Class Label
C[C@@H]1CN([C@H](C)CO)C(=O)Cc2cc(NC(=O)Cc3ccccc3)ccc2O[C@H]1CN(C)S(=O)(=O)c1cccs1	False
C[C@H](CO)N1C[C@H](C)[C@H](CN(C)S(=O)(=O)c2ccc(Cl)cc2)Oc2c(NC(=O)c3ccc(-c4nccs4)cc3)cccc2C1=O	False
COc1cccc(S(=O)(=O)N(C)C[C@@H]2Oc3cc(Br)ccc3S(=O)(=O)N([C@@H](C)CO)C[C@@H]2C)c1	False
Cc1noc(C)c1NC(=O)Nc1ccc2c(c1)C(=O)N([C@H](C)CO)C[C@H](C)[C@H](CN(C)Cc1ccc(Oc3ccccc3)cc1)O2	False
COc1ccc(S(=O)(=O)N(C)C[C@H]2Oc3ccc(NS(=O)(=O)c4cn(C)cn4)cc3CC(=O)N([C@@H](C)CO)C[C@@H]2C)cc1	False
C=CCC[C@@H](Cc1ccc(F)cc1)C(=O)O[C@@H](CNC(=O)[C@@H](CC=C)CC(=O)N[C@@H](CO)Cc1ccccc1)c1ccccc1	True
Cc1cc(C=Cc2ccc3cc(N(C)C)ccc3[n+]2C)c(C)n1-c1ccccc1.O=C([O-])c1cc2ccccc2c(Cc2c(O)c(C(=O)O)cc3ccccc23)c1O	True
CCC1C=C2C(=O)OC(=O)C2CC2=C(C(=O)OC2=O)C(OC(C)=O)C1CC (stereo unspecified)	False
Cc1noc(C)c1S(=O)(=O)Nc1ccc2c(c1)CC(=O)N([C@H](C)CO)C[C@@H](C)[C@H](CN(C)Cc1ccc(-c3ccccc3)cc1)O2	False
C=CCC[C@@H](Cc1ccc(F)cc1)C(=O)O[C@@H](CNC(=O)[C@@H](CC=C)CC(=O)N[C@H](CO)Cc1ccccc1)c1ccccc1	False
Cc1noc(C)c1S(=O)(=O)Nc1ccc2c(c1)CC(=O)N([C@@H](C)CO)C[C@H](C)[C@@H](CN(C)Cc1ccc(-c3ccccc3)cc1)O2	False
C=CC[C@@H](CC(=O)N[C@H](CO)Cc1ccccc1)C(=O)NC[C@H](OC(=O)[C@@H](CC=C)Cc1ccc(F)cc1)c1ccccc1	True
CN1CCCN=C1C=Cc1cccs1.O=C(O)c1cc2ccccc2c(Cc2c(O)c(C(=O)O)cc3ccccc23)c1O	False
CN1CCN(C(=O)C[C@@H]2CC[C@@H]3[C@H](COC[C@@H](O)CN3Cc3ccc4c(c3)OCO4)O2)CC1	False
CN1CCCN=C1C=Cc1cccc(O)c1.O=C(O)c1cc2ccccc2c(Cc2c(O)c(C(=O)O)cc3ccccc23)c1O	False
c1ccc(CNc2ccc3c(ccc4c5ccccc5[nH]c34)n2)cc1	True
C=CCC[C@@H](Cc1ccc(F)cc1)C(=O)O[C@H](CNC(=O)[C@@H](CC=C)CC(=O)N[C@H](CO)Cc1ccccc1)c1ccccc1	False
NNC(=O)CCc1ccccc1	False
C=CCC[C@H](Cc1ccc(F)cc1)C(=O)O[C@H](CNC(=O)[C@@H](CC=C)CC(=O)N[C@@H](CO)Cc1ccccc1)c1ccccc1	False
C[C@H]1CN([C@@H](C)CO)C(=O)Cc2cc(NC(=O)Cn3cnnn3)ccc2O[C@@H]1CN(C)C(=O)NC1CCCCC1	False
COc1ccc(-c2cnc3c(c2)C(=O)N([C@H](C)CO)C[C@H](C)[C@H](CN(C)S(=O)(=O)c2ccc(F)cc2)O3)cc1	False
C=CCC[C@@H](Cc1ccc(F)cc1)C(=O)O[C@H](CNC(=O)[C@@H](CC=C)CC(=O)N[C@@H](CO)Cc1ccccc1)c1ccccc1	False
c1ccc2c(c1)[nH]c1ncccc12	False
Cn1nnc(NCc2ccccc2)n1	False
C=CC[C@@H](CC(=O)N[C@@H](CO)Cc1ccccc1)C(=O)NC[C@@H](OC(=O)[C@@H](CC=C)Cc1ccc(F)cc1)c1ccccc1	False
Cc1noc(C)c1S(=O)(=O)Nc1ccc2c(c1)CC(=O)N([C@@H](C)CO)C[C@H](C)[C@H](CN(C)Cc1ccc(-c3ccccc3)cc1)O2	False
CC(=O)NCC(=O)N1CCC2(CC1)CN(c1cnn(C)c1)C(=O)CO2	False
CCC(=O)N[C@@H]1CC[C@H](CC(=O)OC)O[C@@H]1CO	False
c1ccc(CNc2nn[nH]n2)cc1	False
O=C(C[C@H]1CC[C@H]2[C@@H](COC[C@@H](O)CN2S(=O)(=O)c2ccccc2)O1)N1CCc2ccccc2C1	False
C=CCC[C@H](Cc1ccc(F)cc1)C(=O)O[C@H](CNC(=O)[C@@H](CC=C)CC(=O)N[C@H](CO)Cc1ccccc1)c1ccccc1	True

###

# Tested on: HSkMC
# Test Summary: cytotoxicity call (relative viability < 0.9)
# Condition Set: 10 µM
Hit rate of the full screen: of about 39,000 compounds, about 1,500 (3.8%) were called active. The sample as a whole holds a higher share of actives than the screen did.
Labels: 1 (yes) for active, 0 (no) for inactive

Chemical Structure	Class Label
C[C@@H]1CN([C@@H](C)CO)C(=O)Cc2cc(NS(=O)(=O)c3ccccc3)ccc2O[C@@H]1CN(C)Cc1ccc(C(=O)O)cc1	0 (no)
C[C@H]1CN([C@@H](C)CO)C(=O)Cc2cc(NC(=O)Cc3ccccc3)ccc2O[C@H]1CN(C)S(=O)(=O)c1ccccc1	0 (no)
C[C@H](CO)N1C[C@H](C)[C@H](CN(C)CC2CC2)OCCCC[C@H](C)Oc2ccc(NS(=O)(=O)c3ccc(Cl)cc3)cc2C1=O	0 (no)
C[C@@H]1CN([C@H](C)CO)C(=O)Cc2cc(NC(=O)Nc3ccccc3)ccc2O[C@H]1CN(C)Cc1ccc(Cl)c(Cl)c1	1 (yes)

###

# Test system: HSkMC
# Test Summary: cytotoxicity call (relative viability < 0.9)
# Condition Set: 10 µM
In all, about 39,000 compounds went through this assay and about 1,500 (3.8%) were called active. The sample as a whole holds a higher share of actives than the screen did.
Labels: true for active, false for inactive

Chemical Structure	Class Label
Cn1cc(S(=O)(=O)N2CCN(c3ccc(F)cc3)CC2)c(=O)n(C)c1=O	false
Cc1ccc(S(=O)(=O)Nc2ccc3c(c2)C(=O)N([C@@H](C)CO)C[C@H](C)[C@H](CN(C)C(=O)Nc2ccccc2)OCCCC[C@@H](C)O3)cc1	false
C[C@@H]1CN([C@@H](C)CO)C(=O)c2cc(NC(=O)Nc3ccc4c(c3)OCO4)ccc2O[C@@H]1CN(C)C(=O)Nc1cccc2ccccc12	true
C[C@H]1CN([C@@H](C)CO)C(=O)c2cccc(NC(=O)Nc3ccc(F)cc3)c2O[C@@H]1CN(C)Cc1ccc(Cl)c(Cl)c1	true
C[C@@H]1CN([C@H](C)CO)C(=O)c2cc(NC(=O)Nc3ccc4c(c3)OCO4)ccc2O[C@@H]1CN(C)C(=O)Nc1cccc2ccccc12	true
COc1cccc(CN2C[C@@H](C)[C@H](OC)CN(C)C(=O)c3cc(NS(=O)(=O)c4cn(C)cn4)ccc3OC[C@H]2C)c1	false
CCC(=O)Nc1ccc2c(c1)OC[C@@H](C)N(C(=O)CN1CCOCC1)C[C@@H](C)[C@@H](OC)CN(C)C2=O	false
CCCCn1c(SCC(N)=O)nc2c1c(=O)n(C)c(=O)n2C	false
C[C@@H]1CCCCO[C@H](CN(C)C(=O)Nc2ccc(C(F)(F)F)cc2)[C@H](C)CN([C@H](C)CO)C(=O)c2cc(NS(=O)(=O)c3ccccc3)ccc2O1	false
N#Cc1c(N)nc(SCc2csc(-c3ccc(Cl)cc3)n2)c(C#N)c1-c1ccc(OCCO)cc1	true
C[C@H]1CN([C@@H](C)CO)C(=O)c2cc(NC(=O)Nc3ccc4c(c3)OCO4)ccc2O[C@@H]1CN(C)C(=O)Nc1cccc2ccccc12	false
C[C@H]1CN([C@@H](C)CO)C(=O)c2cccc(NC(=O)Nc3ccc4c(c3)OCO4)c2O[C@@H]1CN(C)Cc1ccc(Cl)c(Cl)c1	false
C[C@H](CO)N1C[C@H](C)[C@@H](CN(C)C(=O)Nc2cccc3ccccc23)Oc2ccc(NC(=O)Nc3ccc4c(c3)OCO4)cc2C1=O	false
C[C@@H]1CN([C@H](C)CO)C(=O)c2cc(NC(=O)Nc3ccc4c(c3)OCO4)ccc2O[C@H]1CN(C)C(=O)Nc1cccc2ccccc12	false
C[C@@H]1CN([C@@H](C)CO)C(=O)c2cccc(NC(=O)Nc3ccc4c(c3)OCO4)c2O[C@@H]1CN(C)Cc1ccc(Cl)c(Cl)c1	false

###

# Tested on: HSkMC (human skeletal muscle cells)
# Test Summary: cytotoxicity call (relative viability < 0.9)
# Condition Set: 10 µM
The whole screen tested about 39,000 compounds, of which about 1,500 (3.8%) were called active. The full list was thinned out, with actives kept by preference.
Possible outcomes: Yes = active, No = inactive

Chemical Structure	Class Label
C[C@H](CO)N1C[C@H](C)[C@H](CN(C)Cc2ccc(Oc3ccccc3)cc2)Oc2ccc(NC(=O)Nc3ccc(F)cc3)cc2CC1=O	No
C[C@@H]1CN([C@@H](C)CO)C(=O)Cc2cc(NC(=O)Nc3ccc(F)cc3)ccc2O[C@H]1CN(C)Cc1ccc(Oc2ccccc2)cc1	No
O=C(C[C@@H]1CC[C@H]2[C@@H](COC[C@@H](O)CN2S(=O)(=O)c2ccc(Oc3ccccc3)cc2)O1)NCCN1CCCCC1	No
C[C@H](CO)N1C[C@H](C)[C@@H](CN(C)Cc2ccc(Oc3ccccc3)cc2)Oc2ccc(NC(=O)Nc3ccc(F)cc3)cc2CC1=O	No
CCCCCCc1nc(CCCc2cc3c(c(CCCCCC)n2)[Si](C(C)C)(C(C)C)O[C@H]3c2ccccc2)cc2c1[Si](C(C)C)(C(C)C)O[C@H]2c1ccccc1	No
C[C@H]1CN([C@@H](C)CO)C(=O)Cc2cc(NC(=O)Nc3ccc(F)cc3)ccc2O[C@@H]1CN(C)Cc1ccc(Oc2ccccc2)cc1	No
C[C@@H]1CN([C@H](C)CO)C(=O)c2cccc(NC(=O)Nc3ccc(C(F)(F)F)cc3)c2O[C@@H]1CN(C)Cc1ccc(Oc2ccccc2)cc1	Yes
